# Tested on: SK-MEL-5
# testDetails: NCI tumour cell line growth inhibition, 48 h
The source made the active and inactive calls. No stated cut-off is given here; in the data, active = GI50 up to about 1.1 µM and inactive = higher.
quantityKind: GI50

Worked examples follow.
Cc1ncc([N+](=O)[O-])n1CCNC(=O)CCn1ccnc1[N+](=O)[O-] :: > 100 µM (inactive)
Cc1c2[nH]c3ccc(Br)cc3c2c(C)c2nccc(O)c12 :: 22.3 µM (inactive)
COc1ccc2c(c1OC(C)=O)C1=CC(=O)CCC13CCNC3C2 (stereo not given) :: > 100 µM (inactive)
COC(=O)C1=C(c2cc(OC)c(OC)c(OC)c2)OC(c2ccc3c(c2)OCO3)C1 (stereo not given) :: 19.1 µM (inactive)
O=C(O)c1cc2ccccc2c(Cc2c(O)c(C(=O)O)cc3ccccc23)c1O :: > 100 µM (inactive)
O=C1Nc2ccccc2/C1=N/N1C(=O)/C(=C/c2ccccc2S)N=C1c1ccccc1 :: 81.8 µM (inactive)
CCSC(SCC)c1cc2c(cc1Br)OCO2 :: 17.5 µM (inactive)
CN(N)/N=N/c1[nH]cnc1[N+](=O)[O-] :: > 100 µM (inactive)
C/C=C/C=C/C1=NN(c2cccc(S(=O)(=O)O)c2)C2(C1)SCC(=O)N2c1nc2ccccc2s1 (stereo not given) :: 85.5 µM (inactive)
COC(=O)c1nc(-c2ccc(Cl)c(Cl)c2)nc2ccc(Cl)cc12 :: > 100 µM (inactive)

Enquiry: # lookup: GI50 of `O=C(/C=C/CC(O)(c1ccccc1)c1ccccc1)Nc1ccccc1Cl`
Return: > 100 µM (inactive)

Enquiry: What do you get for `CC[N+](C)(CC)CCC(O)(c1ccccc1)c1ccccc1` ?
Return: > 100 µM (inactive)

Enquiry: What do you get for `CCOC(=O)c1ccc(C(=O)/C(C#N)=C2\CCCN2C)[nH]1` ?
Return: > 100 µM (inactive)

Enquiry: What do you get for `COc1ccc(/C=C2\N=C3NC(=O)C(N4CCOCC4)=C(N)N3C2=O)cc1` ?
Return: > 100 µM (inactive)

Enquiry: What do you get for `O=C1/C(=C/c2ccc(OC(=O)c3ccccc3)cc2)CCC/C1=C\c1ccc(OC(=O)c2ccccc2)cc1` ?
Return: > 100 µM (inactive)

Enquiry: What do you get for `CN(C)CCOC(=O)c1ccc(N)cc1` ?
Return: 25.6 µM (inactive)

Enquiry: What do you get for O=C1C(Cl)C(c2cccc(Br)c2)N1c1c(O)c(Cl)cc(Br)c1Cl (stereo not given) ?
Return: 14.2 µM (inactive)
